# Tested on: A-375
# ASSAY_EXPLANATION: Antiproliferative activity against human A-375 cells assessed as reduction in cell viability incubated for 72 hrs by MTT assay
# Type: functional, cell-based
Square brackets hold non-standard residues; d marks the D form. Peptide text beside a SMILES is read from it. ξ: configuration not given here. Thr(3ξ) = CC(O)[C@H](N)C(=O)O; NMeV = CN[C@H](C(=O)O)C(C)C; NMeA = CN[C@@H](C)C(=O)O; Sar = CNCC(=O)O

MOLECULE | TARGET | Activity
CC(C)[C@@H]1NC(=O)[C@H](C(C)C)N(C)C(=O)[C@H](C)NC(=O)[C@H](C(C)C)N(C)C(=O)[C@H](C(C)C)NC(=O)[C@H](C(C)C)N(C)C(=O)[C@H](C(C)C)NC(=O)[C@H](C(C)C)N(C)C(=O)[C@H](C(C)O)NC(=O)[C@H](C(C)C)N(C)C(=O)[C@H](C)NC(=O)[C@H](C(C)C)N(C)C(=O)[C@H](C)NC(=O)CN(C)C(=O)[C@H](C(C)C)NC(=O)[C@H](C)N(C)C(=O)[C@H](C(C)C)N(C)C(=O)CN(C)C1=O (stereo partly drawn) (cyclo(A[NMeV]A[NMeV][Thr(3ξ)][NMeV]V[NMeV]V[NMeV]A[NMeV]V[Sar][NMeV][NMeA]V[Sar])) | A-375 | Dose-dependent-effect
CC(C)[C@@H]1NC(=O)[C@H](C(C)C)N(C)C(=O)[C@H](C)NC(=O)[C@H](C(C)C)N(C)C(=O)[C@H](C(C)C)NC(=O)[C@H](C(C)C)N(C)C(=O)[C@H](C(C)C)NC(=O)[C@H](C(C)C)N(C)C(=O)[C@H](CO)NC(=O)[C@H](C(C)C)N(C)C(=O)[C@H](C)NC(=O)[C@H](C(C)C)N(C)C(=O)[C@H](C)NC(=O)CN(C)C(=O)[C@H](C(C)C)NC(=O)[C@H](C)N(C)C(=O)[C@H](C(C)C)N(C)C(=O)CN(C)C1=O (cyclo(A[NMeV]A[NMeV]S[NMeV]V[NMeV]V[NMeV]A[NMeV]V[Sar][NMeV][NMeA]V[Sar])) | A-375 | Dose-dependent-effect
CC(C)[C@@H]1NC(=O)[C@H](C(C)C)N(C)C(=O)[C@H]([C@@H](C)O)NC(=O)[C@H](C(C)C)N(C)C(=O)[C@H](C(C)C)NC(=O)[C@H](C(C)C)N(C)C(=O)[C@H](C(C)C)NC(=O)[C@H](C(C)C)N(C)C(=O)[C@H](C(C)C)NC(=O)[C@H](C(C)C)N(C)C(=O)[C@H](C)NC(=O)[C@@H]([C@@H](C)O)N(C)C(=O)[C@H](C(C)C)NC(=O)[C@@H]2CCCN2C(=O)[C@H](C)NC(=O)[C@H](C)N(C)C(=O)[C@H](C(C)C)N(C)C(=O)CN(C)C1=O | A-375 | Dose-dependent-effect
